# credit: patent US20170037110A1

# EXPERIMENTAL_TARGET: T1, HLA-A*02:01 (human)
# T1 construct: monomers captured on streptavidin plates; also called MHC class I
# MEASUREMENT_PROTOCOL: UV peptide exchange ELISA
peptide exchange yield values for the binders below.
MEASUREMENT_TYPE: peptide exchange yield

• KLYDDMIRL = 50 to 75%
• KLYDRILRV = 20 to 50%
• YLISFQTHI = 50 to 75%
• GLFPVTPEAV = 50 to 75%
• MLYVVPIYL = 20 to 50%
